Test system: NCI-H460 lung
Assay: NCI-60 one-dose screen, 48 h (100 = growth as untreated, 0 = no growth, -100 = all killed)
Details: 10 µM
Compounds without any hit were thinned out: in the full panel of roughly 83,000, 20% have a hit.
measurement.name: growth (%)
The answer is to be given in %; state only the numeric part.

Study these solved cases before continuing.
The reported value for C=C1c2c(C)nn(-c3ccc(OC)cc3)c2N(C)C23C[C@@H]1C1(C)c4c(C)nn(-c5ccc(OC)cc5)c4N(C)C(C)(C[C@H]12)C3 (some centres undefined) in terms of growth is 6.82

# compound `Cc1ccc(S(=O)(=O)OCCN(CCOS(=O)(=O)c2ccc(C)cc2)c2c[nH]c(=O)[nH]c2=O)cc1` ; its growth = 114

Note to self: growth recorded for `COc1ccc(-c2nn(-c3cccc(NC(=O)Nc4cccc(C(F)(F)F)c4)c3)cc2-c2ccncc2)cc1Cl` was 2.43

Consider `Nc1c(C(=O)Nc2cccc3ccccc23)sc2nc3c(cc12)C(=O)CCC3` . Its measured growth is 5.05

Sure, the documented growth for `CCN1CCN(c2nc3ccccc3c3c(=O)c4ccccc4sc23)CC1` is 20

Now for the compound whose growth we want.
GET /value?item= `c1ccc2c(c1)oc1c3c(ccc12)NCCC3` &field=growth returns 99
